# ASSAYED SYSTEM: FXR (Homo sapiens, UniProt Q96RI1)
# Sequence (Q96RI1 whole entry): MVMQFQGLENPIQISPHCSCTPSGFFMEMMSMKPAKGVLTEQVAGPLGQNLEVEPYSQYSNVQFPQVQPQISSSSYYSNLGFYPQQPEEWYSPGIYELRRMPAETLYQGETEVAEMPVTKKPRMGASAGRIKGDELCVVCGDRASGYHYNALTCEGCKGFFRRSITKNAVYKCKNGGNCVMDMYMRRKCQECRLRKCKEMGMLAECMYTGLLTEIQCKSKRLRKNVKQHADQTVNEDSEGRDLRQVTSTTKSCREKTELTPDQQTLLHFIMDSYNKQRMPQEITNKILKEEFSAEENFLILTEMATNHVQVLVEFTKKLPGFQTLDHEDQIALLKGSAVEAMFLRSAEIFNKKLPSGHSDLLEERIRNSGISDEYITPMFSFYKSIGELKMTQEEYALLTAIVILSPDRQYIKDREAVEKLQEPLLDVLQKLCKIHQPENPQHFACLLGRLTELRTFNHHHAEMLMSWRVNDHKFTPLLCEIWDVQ
# Sequence (P19793 whole entry partner): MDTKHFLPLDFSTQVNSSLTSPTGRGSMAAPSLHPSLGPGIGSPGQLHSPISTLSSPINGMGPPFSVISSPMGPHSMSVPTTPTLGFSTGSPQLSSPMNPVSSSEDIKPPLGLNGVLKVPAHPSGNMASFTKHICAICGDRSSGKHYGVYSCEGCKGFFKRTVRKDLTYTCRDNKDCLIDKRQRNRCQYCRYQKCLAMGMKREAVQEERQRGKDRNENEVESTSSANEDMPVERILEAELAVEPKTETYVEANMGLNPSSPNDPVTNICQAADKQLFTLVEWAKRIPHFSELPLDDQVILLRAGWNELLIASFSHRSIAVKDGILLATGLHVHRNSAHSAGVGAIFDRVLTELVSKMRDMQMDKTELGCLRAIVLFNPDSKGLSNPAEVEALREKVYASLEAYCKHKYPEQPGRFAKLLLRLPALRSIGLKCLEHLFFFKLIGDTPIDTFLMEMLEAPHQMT
# EXPERIMENTAL PROTOCOL: In Vitro FXR Assay (TK): TK-ECRE-luc reporter in transfected CV-1 cells
# COND: CV-1 cells transfected with hFXR, hRXR, 18 h incubation, luminescence
pEC50: −log10 of the molar value.
Please provide measured pEC50 for the entries that follow.

Quick one: pEC50 of COC(=O)/C=C/c1cccc(N(Cc2ccc(-c3ccc(N(C)C)cc3)cc2)C(=O)[C@H]2CC[C@H](N)CC2)c1 [compound 97] ? < 5.00

Next molecule up: COC(=O)/C=C/c1cccc(N(Cc2ccc(-c3ccc(OC)c(C)c3)cc2)C(=O)C2CCCCC2)c1 [compound 52] ≥ 6.00

How about COC(=O)/C=C/c1cccc(N(Cc2ccc(-c3ccc(N(C)C)cc3)cc2F)C(=O)C2CCCCC2)c1 [compound 51] ? ≥ 6.00

Would you kindly repeat that for COC(=O)/C=C/c1cccc(N(Cc2ccc(-c3ccc(N(C)C)cc3)cc2C#N)C(=O)C2CCCCC2)c1 [62.12] ? 5.00 to 6.00

Try this molecule too: CN(C)c1ccc(-c2ccc(CN(C(=O)C3CCCCC3)c3cccc(/C=C/C(=O)OC4CCCCC4)c3)cc2)cc1 [86.1] < 5.00

What do you have for COC(=O)/C=C/c1cccc(N(Cc2ccc(-c3ccc(N(C)C)cc3)cc2)C(=O)C2CCCCC2)c1C [compound 41] ? 5.00 to 6.00

Same thing, different molecule: COCCOC(=O)/C=C/c1cccc(N(Cc2ccc(-c3ccc(N(C)C)cc3)cc2)C(=O)C2CCCCC2)c1 [86.3] 5.00 to 6.00

And for COC(=O)/C=C/c1cccc(N(Cc2ccc(-c3ccc4scnc4c3)cc2)C(=O)C2CCCCC2)c1 [75.14] ? ≥ 6.00

Moving on to the next molecule: COC(=O)/C=C/c1cccc(N(Cc2ccc(-c3ccc(N(C)C)cc3)cc2)C(=O)[C@@H]2CCCC[C@H]2O)c1 (relative stereo) [13.25] 5.00 to 6.00

Same question for COC(=O)/C=C/c1cccc(N(Cc2ccc(-c3ccc(N(C)C)cc3)cc2)C(=O)C2CCC(=O)NC2)c1 (stereo not drawn) [13.17] please. 5.00 to 6.00

Same read-out for COC(=O)/C=C/c1cccc(N(Cc2ccc(-c3ccc(N(C)C)cc3)cc2)C(=O)C2CCCOC2)c1 (stereo not drawn) [17.3] ? 5.00 to 6.00

Proceed to CNc1ccc(-c2ccc(CN(C(=O)C3CCCCC3)c3cccc(/C=C/C(=O)OC)c3)cc2)cc1 [compound 61] 5.00 to 6.00

Also need COC(=O)/C=C/c1cccc(N(Cc2ccc(-c3ccc(N(C)C)c(C)c3)cc2)C(=O)C2CCCCC2)c1 [compound 20] , thanks. ≥ 6.00

Also check COC(=O)/C=C/c1cccc(N(Cc2ccc(N(C)C(=O)c3ccccc3)cc2)C(=O)C2CCCCC2)c1 [compound 101] < 5.00

Lookup COC(=O)C(C)Cc1cccc(N(Cc2ccc(-c3ccc(N(C)C)cc3)cc2)C(=O)C2CCCCC2)c1 (stereo not drawn) [compound 95] 5.00 to 6.00

Follow-up item: COC(=O)/C=C/c1cccc(N(Cc2ccc(-c3ccc(CO)cc3)cc2)C(=O)C2CCCCC2)c1 [62.7] < 5.00

Also need COC(=O)/C=C/c1cccc(N(Cc2ccc(-c3ccc(N(C)C)cc3)cc2)C(=O)[C@H]2CC[C@H](NS(C)(=O)=O)CC2)c1 [98.2] , thanks. ≥ 6.00

How about this molecule: COC(=O)/C=C/c1cccc(N(Cc2ccc(-c3ccc(N(C)C)cc3)cc2)C(=O)[C@H]2CC[C@H](NC(=O)OC)CC2)c1 [compound 98] ≥ 6.00
